# Tested System: hNAMPT protein (Homo sapiens (Human))
# Sequence (P43490 whole entry): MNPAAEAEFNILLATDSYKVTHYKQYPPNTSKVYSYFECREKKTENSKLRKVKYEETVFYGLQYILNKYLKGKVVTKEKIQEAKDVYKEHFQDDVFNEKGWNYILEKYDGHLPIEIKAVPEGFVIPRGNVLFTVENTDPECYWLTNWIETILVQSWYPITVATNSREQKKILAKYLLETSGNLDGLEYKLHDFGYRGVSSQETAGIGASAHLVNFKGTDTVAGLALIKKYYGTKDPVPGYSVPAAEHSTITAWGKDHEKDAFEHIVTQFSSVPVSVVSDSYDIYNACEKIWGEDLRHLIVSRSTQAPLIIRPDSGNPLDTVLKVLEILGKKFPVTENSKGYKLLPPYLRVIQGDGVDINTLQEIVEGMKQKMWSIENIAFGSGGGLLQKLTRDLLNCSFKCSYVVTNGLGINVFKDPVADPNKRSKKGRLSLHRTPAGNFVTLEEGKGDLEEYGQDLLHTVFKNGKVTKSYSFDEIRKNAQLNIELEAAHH
# Protocol Text: NAMPT enzyme assay (TR-FRET/HTRF, BodiPY ligand, anti 6His-Tb)
# Assay type: binding
# Stated Conditions: compound concentration 1 μM; read-out: Percent Inhibition
Classify by measured inhibition at 1 µM: True if it is equal to or exceeds 90%, False if it is smaller.

Check out these entries, answers already filled in.
{"columns": ["Compound", "Tested System", "Class Label"],
 "data": [
  ["COc1cccc(-c2nc3cc(C(=O)NCCCc4ncc[nH]4)ccc3nc2N2CCCCC2)c1", "hNAMPT protein (Homo sapiens (Human))", "True"],
  ["O=C(NCCCn1ccnc1)c1ccc2nc(N3CCC(N4CCOCC4)CC3)c(-c3ccccc3)nc2c1", "hNAMPT protein (Homo sapiens (Human))", "True"]
]}

Q. Quick check, inhibition at 1 µM >= 90%? COc1cccc(-c2nc3cc(C(=O)NCCCn4ccnc4)ccc3nc2-c2ccccc2)c1
A. True
